- PROCEDURE_TEXT: BSK_3C_TissueFactor: BioMAP Diversity Plus: 3C Assay for Tissue Factor Biomarker Activity (AID 2282997)
- CONDITION_SUMMARY: BioMAP 3C HUVEC, tissue factor biomarker readout; actives raise or lower the signal
- Method: BSK_3C is a cell-based, multiplexed-readout assay that uses umbilical vein endothelium, a human vascular primary cell, with measurements taken at 24 hours after chemical dosing in a 96-well plate.BSK_3C_TissueFactor is an assay component measured in the BSK_3C assay. It measures Tissue Factor antibody related to regulation of gene expression using ELISA technology.Data from the assay component BSK_3C_TissueFactor was analyzed into 1 assay endpoint. […]
Active and inactive are the calls of the source. Rule for the calls: active = hit-call score of the fitted dose curve at least 0.9, where 1 is the maximum; inactive = score below 0.9.
Select the correct class. Options are True = active, False = inactive and nothing else.

Solved entries (count: 6):
{"MOLECULE": "CCNc1ccccc1", "CLASS_ASSIGNMENT": "False"}
{"MOLECULE": "COC(=O)c1c(Cl)c(Cl)c(C(=O)OC)c(Cl)c1Cl", "CLASS_ASSIGNMENT": "False"}
{"MOLECULE": "O=C(O)c1cc(N=Nc2ccc(S(=O)(=O)Nc3ccccn3)cc2)ccc1O", "CLASS_ASSIGNMENT": "False"}
{"MOLECULE": "CC(C)CC(C)(O)C#CC(C)(O)CC(C)C (stereo not drawn)", "CLASS_ASSIGNMENT": "False"}
{"MOLECULE": "Cc1ccc(N)cc1O", "CLASS_ASSIGNMENT": "False"}
{"MOLECULE": "CC(C)CCCCCCCOC(=O)CCCCC(=O)OCCCCCCCC(C)C", "CLASS_ASSIGNMENT": "False"}

Can you look up the reported call for `CC(C)CCO` for me?
False

Can you look up the reported call for `CC1(C)C(=O)N(Br)C(=O)N1Br` for me?
False

Can you look up the reported call for `COCCOc1cc2cc(C(=O)NC3CCN(C(C)C)CC3)n(CC(=O)Nc3ccc(Cl)cn3)c2cn1` for me?
False

Can you look up the reported call for `CCc1cc(SCc2sc(-c3ccc(C(F)(F)F)cc3)nc2CN2CCN(c3ccc(OC)cc3)CC2)ccc1OCC(=O)O` for me?
True

Can you look up the reported call for `Cn1cnc([N+](=O)[O-])c1Sc1ncnc2nc[nH]c12` for me?
False

Can you look up the reported call for CC(O)CN(CCN(CC(C)O)CC(C)O)CC(C)O (stereo not drawn) for me?
False

Can you look up the reported call for CCOC(=O)c1ccc(C2CCC(NC[C@H](O)COc3ccc(O)c(NS(C)(=O)=O)c3)CC2)cc1 (stereo partly drawn) for me?
False

Can you look up the reported call for `COc1cccc(-c2ccc(/C=C\CN3CCCCCC3)cc2Cl)c1` for me?
True

Can you look up the reported call for `CC(C)c1cccc(C(C)C)c1N1C(=O)c2ccc(O)cc2C1=O` for me?
False

Can you look up the reported call for `CCCN(C1CCN(C(=O)C2CCNCC2)CC1)[C@@H]1CCc2ccc(OC)cc2C1` for me?
False

Can you look up the reported call for `CC(C)=CCC/C(C)=C/CO` for me?
False

Can you look up the reported call for `CCN(C(=O)c1cc(C)cc(OC[C@H](C)Nc2ccncc2)c1)C(C)C` for me?
False

Can you look up the reported call for `CC(=O)OC[C@H]1O[C@@](COC(C)=O)(O[C@H]2O[C@H](COC(C)=O)[C@@H](OC(C)=O)[C@H](OC(C)=O)[C@H]2OC(C)=O)[C@@H](OC(C)=O)[C@@H]1OC(C)=O` for me?
False

Can you look up the reported call for `Cn1c(=O)c2c(ncn2C)n(C)c1=O` for me?
False

Can you look up the reported call for `Clc1nc(Cl)c(Cl)c(Cl)c1Cl` for me?
False

Can you look up the reported call for O=c1n(CC2CO2)c(=O)n(CC2CO2)c(=O)n1CC1CO1 (stereo not drawn) for me?
True

Can you look up the reported call for `Nc1nc2ncc(CNc3ccc(C(=O)N[C@@H](CCC(=O)O)C(=O)O)cc3)nc2c(=O)[nH]1` for me?
False
